Known pIC50 of a selection of molecules
Target: human CB1 receptor (Homo sapiens)
Construct: expressed in transfected cells; host or cells: HEK293
Protocol description: bioSensAll GAPL-Gi2 BRET biosensor assay in HEK293 cells transfected with hCB1; test compound added before EC75-80 of agonist CP55,940 (0.1 nM)
Type: cell-based
Assay setup: vs CP55,940 0.1 nM (EC75-80), read-out: CB1 wt Gi2 IC50
# reply with the number alone; pIC50 is -log10 of concentration in mol/L

Guide cases for pIC50, answers given:
Sample smiles: CN1CCN(c2nc(N(C)CCO)nc3c2nc(-c2ccccc2Cl)n3-c2ccc(Cl)cc2)CC1
Experimental endpoint: pIC50
Value measured: 8.71
//
Sample smiles: CC(C)N1CCN(c2nc(OCC(C)(C)O)nc3c2nc(-c2ccccc2Cl)n3-c2ccc(Cl)cc2)CC1
Experimental endpoint: pIC50
Value measured: 8.46
//
Sample smiles: FC(F)(F)C1CCN(c2nc(N3C[C@H]4C[C@H]4C3)nc3c2nc(-c2ccccc2Cl)n3-c2ccc(Cl)cc2)CC1
Experimental endpoint: pIC50
Value measured: 8.56
//
Sample smiles: CC(=O)NCCOc1nc(N2CCC(C(F)(F)F)CC2)c2nc(-c3ccccc3Cl)n(-c3ccc(Cl)cc3)c2n1
Experimental endpoint: pIC50
Value measured: 9.02

Prompt line: // Input: CC1(C(N)=O)CCN(c2nc(OCCCO)nc3c2nc(-c2ccccc2Cl)n3-c2ccc(Cl)cc2)CC1 . Output its pIC50 only.
Response line: 9.06

Prompt line: // Input: Cc1nc(N2CCC(C)(C(N)=O)CC2)c2nc(-c3ccccc3Cl)n(-c3ccc(Cl)cc3)c2n1 . Output its pIC50 only.
Response line: 8.03

Prompt line: // Input: C[C@H](CO)N(C)c1nc(N2CCC(C)(C(N)=O)CC2)c2nc(-c3ccccc3Cl)n(-c3ccc(Cl)cc3)c2n1 . Output its pIC50 only.
Response line: 8.90

* * *

Target: human CB1 receptor (Homo sapiens, UniProt P21554)
Construct: expressed in transfected cells; host or cells: HEK293
Sequence (P21554 whole entry): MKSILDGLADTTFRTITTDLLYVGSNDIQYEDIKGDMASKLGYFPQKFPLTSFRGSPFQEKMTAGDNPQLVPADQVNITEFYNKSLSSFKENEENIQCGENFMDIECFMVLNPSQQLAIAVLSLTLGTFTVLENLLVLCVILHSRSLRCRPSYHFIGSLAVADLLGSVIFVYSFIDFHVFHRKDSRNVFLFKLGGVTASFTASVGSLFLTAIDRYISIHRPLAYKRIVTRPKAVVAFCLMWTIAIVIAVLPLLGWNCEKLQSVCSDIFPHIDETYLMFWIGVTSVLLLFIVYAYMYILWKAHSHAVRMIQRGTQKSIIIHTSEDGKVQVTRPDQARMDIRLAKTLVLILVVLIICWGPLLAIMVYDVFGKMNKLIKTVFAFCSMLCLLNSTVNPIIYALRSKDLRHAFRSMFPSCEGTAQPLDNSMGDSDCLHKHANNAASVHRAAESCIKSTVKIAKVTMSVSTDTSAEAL
Protocol description: bioSensAll GAPL-Gi2 BRET biosensor assay in HEK293 cells transfected with hCB1; test compound added before EC75-80 of agonist CP55,940 (0.1 nM)
Type: cell-based
Assay setup: vs CP55,940 0.1 nM (EC75-80), read-out: CB1 wt Gi2 IC50
Quick rule for you: IC50 under 0.7 nM gets satisfied, anything else gets not satisfied.

Prompt line: In the record for CN(CC(C)(C)O)c1nc(N2CCC(C(F)(F)F)CC2)c2nc(-c3ccccc3Cl)n(-c3ccc(Cl)cc3)c2n1 [Compound 38] , is IC50 less than 0.7 nM?
Response line: not satisfied

* * *

Known IC50 of a selection of compounds
Target: human CB1 receptor (Homo sapiens, UniProt P21554)
Construct: expressed in transfected cells; host or cells: HEK293
Protocol description: bioSensAll β-arrestin2 plasma membrane translocation (+GRK2) BRET biosensor assay in HEK293 cells transfected with hCB1; test compound added before EC75-80 of agonist CP55,940 (100 nM)
Assay type: cell-based
Assay setup: βArrestin2 (+GRK2) BRET biosensor, vs CP55,940 100 nM (EC75-80), read-out: CB1 wt βarr2 IC50
Report as a plain number; the unit nM is understood.

Guide cases for IC50, answers given:
Compound: CN1CCC[C@H]1COc1nc(N2CCC(C)(C(N)=O)CC2)c2nc(-c3ccccc3Cl)n(-c3ccc(Cl)cc3)c2n1 [Compound 117]
IC50 / nM: 3.76

Compound: CC(C)Nc1nc(OCC(C)(C)O)nc2c1nc(-c1ccccc1Cl)n2-c1ccc(Cl)cc1 [Compound 87]
IC50 / nM: 21.6

Compound: O=S1(=O)CCC(Nc2nc(N3CCC[C@H]3CO)nc3c2nc(-c2ccccc2Cl)n3-c2ccc(Cl)cc2)CC1 [Compound 166]
IC50 / nM: 1.4

Compound: CO[C@@H]1CCN(c2nc(N3CCC(C)(C(N)=O)CC3)c3nc(-c4ccccc4Cl)n(-c4ccc(Cl)cc4)c3n2)C1 [Compound 91]
IC50 / nM: 2.56

Compound: CC(=O)NC(=N)Nc1nc(N2CCC(C(F)(F)F)CC2)c2nc(-c3ccccc3Cl)n(-c3ccc(Cl)cc3)c2n1 [Compound 34]
IC50 / nM: 17.6

Prompt line: // Input: CC1(C(N)=O)CCN(c2nc(-c3cc[nH]n3)nc3c2nc(-c2ccccc2Cl)n3-c2ccc(Cl)cc2)CC1 [Compound 44] . Output its IC50 only.
Response line: 10

Prompt line: // Input: CN(CCO)c1nc(N2CC(C(N)=O)C2)c2nc(-c3ccccc3Cl)n(-c3ccc(Cl)cc3)c2n1 [Compound 72] . Output its IC50 only.
Response line: 3.81

Prompt line: // Input: OC[C@@H]1CN(c2nc(N3CCC[C@H]3CO)nc3c2nc(-c2ccccc2Cl)n3-c2ccc(Cl)cc2)CCO1 [Compound 169] . Output its IC50 only.
Response line: 2.04

Prompt line: // Input: CC(C)(O)COc1nc(N2C[C@H]3C[C@@H]2CO3)c2nc(-c3ccccc3Cl)n(-c3ccc(Cl)cc3)c2n1 [Compound 203] . Output its IC50 only.
Response line: 6.49

* * *

Target: human CB1 receptor (Homo sapiens, UniProt P21554)
Construct: expressed in transfected cells; host or cells: HEK293
Protocol description: bioSensAll GAPL-Gi2 BRET biosensor assay in HEK293 cells transfected with hCB1; test compound added before EC75-80 of agonist CP55,940 (0.1 nM)
Type: cell-based
Assay setup: vs CP55,940 0.1 nM (EC75-80), read-out: CB1 wt Gi2 IC50
Experimental endpoint: pIC50
# reply with the number alone; pIC50 is -log10 of concentration in mol/L

Compound: CCOC1(C(N)=O)CN(c2nc(OCC(C)(C)O)nc3c2nc(-c2ccc(C#N)nc2)n3-c2ccc(Cl)cc2)C1
Value measured: 8.12

Prompt line: // Input: C[C@H]1CN(c2nc(OCC(C)(C)O)nc3c2nc(-c2ccccc2Cl)n3-c2ccc(Cl)cc2)CCO1 . Output its pIC50 only.
Response line: 8.81

Prompt line: // Input: Cc1cccnc1-c1nc2c(N3CCC(C)(C(N)=O)CC3)nc(N(C)CCO)nc2n1-c1ccc(Cl)cc1 . Output its pIC50 only.
Response line: 8.00

Prompt line: // Input: CN(CCO)c1nc(-c2ccc(C(F)(F)F)nc2)c2nc(-c3ccccc3Cl)n(-c3ccc(Cl)cc3)c2n1 . Output its pIC50 only.
Response line: 9.38

Prompt line: // Input: CC(C)Oc1nc(OC(C)C)c2nc(-c3ccccc3Cl)n(-c3ccc(Cl)cc3)c2n1 . Output its pIC50 only.
Response line: 8.22

Prompt line: // Input: OC[C@@H]1CCCN1c1nc(N2CCC(C(F)(F)F)CC2)c2nc(-c3ccccc3Cl)n(-c3ccc(Cl)cc3)c2n1 [Compound 162] . Output its pIC50 only.
Response line: 8.89

Prompt line: // Input: CN(CCO)c1nc(N2CC3(COC3)C2)c2nc(-c3ccccc3Cl)n(-c3ccc(Cl)cc3)c2n1 . Output its pIC50 only.
Response line: 9.51

Prompt line: // Input: CN(CCO)c1nc(N2CCOCC2)c2nc(-c3ccccc3Cl)n(-c3ccc(Cl)cc3)c2n1 . Output its pIC50 only.
Response line: 9.78

* * *

Target: human CB1 receptor (Homo sapiens)
Construct: expressed in transfected cells; host or cells: HEK293
Protocol description: bioSensAll GAPL-Gi2 BRET biosensor assay in HEK293 cells transfected with hCB1; test compound added before EC75-80 of agonist CP55,940 (0.1 nM)
Format: cell-based
Assay setup: vs CP55,940 0.1 nM (EC75-80), read-out: CB1 wt Gi2 IC50
Description: Using polyethylenimine (PEI) transfection agent, HEK293 cells were transfected in suspension with the human CB1 receptor and one of the following bioSensAll® assays: GAPL-Gi2, or β-arrestin plasma membrane (PM) translocation biosensor (+GRK2). Cells were directly seeded in 96-well plates immediately following transfection. Cells were incubated with coelenterazine (luciferase substrate) and different test compounds prior to the measurement of BRET signals. […]
Quick rule for you: IC50 under 2000 pM gets rule met, anything else gets rule not met.

# count of solved cases: 5
Molecule: FC(F)(F)C1CCN(c2nc(-c3cc[nH]n3)nc3c2nc(-c2ccccc2Cl)n3-c2ccc(Cl)cc2)CC1
Group label: rule not met
//
Molecule: C[C@H](O)CN(C)c1nc(N2CCC(C)(C(N)=O)CC2)c2nc(-c3ccccc3Cl)n(-c3ccc(Cl)cc3)c2n1
Group label: rule met
//
Molecule: CN1C[C@H](F)C[C@H]1COc1nc(N2CCC(C)(C(N)=O)CC2)c2nc(-c3ccccc3Cl)n(-c3ccc(Cl)cc3)c2n1 [Compound 228]
Group label: rule met
//
Molecule: OCCCOc1nc(N2CCC(C(F)(F)F)CC2)c2nc(-c3ccccc3Cl)n(-c3ccc(Cl)cc3)c2n1
Group label: rule met
//
Molecule: CC(C)(O)COc1nc(-c2ccc(C(F)(F)F)nc2)c2nc(-c3ccccc3Cl)n(-c3ccc(Cl)cc3)c2n1
Group label: rule met

Prompt line: In the record for CC(C)(O)COc1nc(N2C[C@@H]3C[C@H]2CO3)c2nc(-c3ccccc3Cl)n(-c3ccc(Cl)cc3)c2n1 , is IC50 less than 2000 pM?
Response line: rule not met

Prompt line: In the record for CN(CCO)c1nc(N2CCC(C)(C(N)=O)CC2)c2nc(-c3ccccc3Cl)n(-c3ccc(Cl)cc3)c2n1 [Compound 158] , is IC50 less than 2000 pM?
Response line: rule met

Prompt line: In the record for CN(CCO)c1nc(N2CC(C)(C#N)C2)c2nc(-c3ccccc3Cl)n(-c3ccc(Cl)cc3)c2n1 , is IC50 less than 2000 pM?
Response line: rule met

Prompt line: In the record for Cc1cnc(-c2nc3c(N4CCC(C)(C(N)=O)CC4)nc(N(C)CCO)nc3n2-c2ccc(Cl)cc2)n1C , is IC50 less than 2000 pM?
Response line: rule not met

Prompt line: In the record for CN(CCO)c1nc(N2CCC(C)(C(N)=O)CC2)c2nc(-c3ccc(C#N)cn3)n(-c3ccc(Cl)cc3)c2n1 , is IC50 less than 2000 pM?
Response line: rule not met

Prompt line: In the record for CN(CCO)c1nc(NC2CCS(=O)(=O)CC2)c2nc(-c3ccccc3Cl)n(-c3ccc(Cl)cc3)c2n1 , is IC50 less than 2000 pM?
Response line: rule met

Prompt line: In the record for CC(C)C(=O)Nc1nc(N2CCC(C)(C#N)CC2)c2nc(-c3ccccc3Cl)n(-c3ccc(Cl)cc3)c2n1 , is IC50 less than 2000 pM?
Response line: rule met

Prompt line: In the record for CCNC1(C(N)=O)CCN(c2nc(C(N)=O)nc3c2nc(-c2ccccc2Cl)n3-c2ccc(Cl)cc2)CC1 , is IC50 less than 2000 pM?
Response line: rule not met

Data origin, for the record: patent US20250333418A1
